assay: Stability in human plasma assessed as half life at 100 uM and measured after 120 mins by LC-MS/MS analysis; assay type: ADME, cell-free
Endpoint label: half-life at 100 µM

# input Please give the documented half-life at 100 µM of O=C(c1cccc(-c2n[nH]c3ncc(Cc4cc(F)ccc4F)cc23)c1)N1CCCC(O)C1 (stereo unspecified)
# output > 4.82 h

###

assay: Stability in human plasma assessed as parent compound remaining at 100 uM and measured after 60 mins by LC-MS/MS analysis; format: ADME, cell-free; details: read-out: Stability
Endpoint label: remaining at 1 h, 100 µM (%)
Reply with just the number (in %).

# input Please give the documented remaining at 1 h, 100 µM of O=C(c1cccc(-c2n[nH]c3ncc(Cc4cc(F)ccc4F)cc23)c1)N1CCCC(O)C1 (stereo unspecified)
# output 93.6
